test system: DLG2_2, Q15700
Sequence (Q15700 189-283): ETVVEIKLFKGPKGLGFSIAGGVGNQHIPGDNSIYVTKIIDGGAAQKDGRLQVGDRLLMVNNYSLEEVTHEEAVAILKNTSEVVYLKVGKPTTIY
experiment notes: holdup assay
Design: key: below the threshold = too weak to quantify, mostly under pKd 3.1 to 4
condition label: plain residues with an end cap or a label only (N-terminal biotin on a linker: ado-ado)

- binder: "QGLAERISVL [PRKD2, Q9BZL6]"
  pKd: "below the threshold"
- binder: "IKAIVDLTGL [TRAF2, Q12933]"
  pKd: "below the threshold"
- binder: "NHSSSPETTA [TRMT13, Q9NUP7]"
  pKd: "below the threshold"
- binder: "LSEFKAMDSI [CTNNA1, P35221]"
  pKd: "below the threshold"
- binder: "DTTVPESEDL [MYOZ2, Q9NPC6]"
  pKd: "below the threshold"
- binder: "SARSRLSSNL [HCN2, Q9UL51]"
  pKd: "below the threshold"
- binder: "PDGQCTVTEV [RNF146, Q9NTX7]"
  pKd: 4.9
- binder: "YRLAQESGLV [ABCC6, O95255]"
  pKd: "below the threshold"
- binder: "DDEDRLVIEI [ZNF831, Q5JPB2]"
  pKd: "below the threshold"
- binder: "HSGYRLNDYV [CLDN14, O95500]"
  pKd: "below the threshold"
- binder: "EKKTLIGIKL [GOT1L1, Q8NHS2]"
  pKd: "below the threshold"
- binder: "VRNLPESEEL [MYOZ3, Q8TDC0]"
  pKd: "below the threshold"
- binder: "LKVPPEERLI [CRB2, Q5IJ48]"
  pKd: "below the threshold"
- binder: "LPAHHNATRL [SLC34A1, Q06495;Q06495-1]"
  pKd: "below the threshold"
- binder: "YLEPVLSSEL [ATP2A2, P16615;P16615-3]"
  pKd: "below the threshold"
- binder: "RRISSLESEV [GRIN2C, Q14957]"
  pKd: 5.11
- binder: "GNSVLKSTQF [SLC22A12, Q96S37]"
  pKd: "below the threshold"
- binder: "PPYRHRNTVV [ERBB4, Q15303]"
  pKd: 4.95
- binder: "RKPKPSSSCC [RAB9A, P51151]"
  pKd: "below the threshold"
